tested on: Osteoclast; experiment: In vitro bone resorption in isolated rabbit osteoclasts; assay type: functional, cell-based; settings: Oryctolagus cuniculus
MEASURE: IC50 (nM)

A = CN1CCC(N(C)c2ccc(-c3ccc(C(=O)NC4(C(=O)NCC#N)CCCCC4)cc3)cc2)C1 (stereo not drawn)
B = CC(C)(C)N1CCN(c2nc(-c3ccc(C(=O)NC4(C(=O)NCC#N)CCCCC4)cc3)cs2)CC1
C = CN1CCCC(Oc2ccc(-c3ccc(C(=O)NC4(C(=O)NCC#N)CCCCC4)cc3)cc2)C1 (stereo not drawn)
// query Quick favor: sort the compounds up above by IC50, largest first. Give the labels in the order requested.
// result A, C, B
(A: 33 nM, C: 10 nM, B: 1 nM)
